molecular target: Streptavidin (Streptomyces avidinii) (UniProt P22629); assay: streptavidin binders on small-molecule microarray, primary screen, artefact control for SMM compound annotation, biophysical, 635/667 nm fluorescence (AID 1147); settings: streptavidin binding, higher = more signal;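 further: signal reflects streptavidin binding to arrayed compounds as a control protein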
Sequence (P22629 whole entry, looked up): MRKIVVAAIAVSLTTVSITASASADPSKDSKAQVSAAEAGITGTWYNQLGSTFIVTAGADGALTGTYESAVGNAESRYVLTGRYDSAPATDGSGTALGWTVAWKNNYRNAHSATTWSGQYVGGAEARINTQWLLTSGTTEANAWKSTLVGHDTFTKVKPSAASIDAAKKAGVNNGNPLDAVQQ
// label = satisfied if composite z-score is not less than 0.4, otherwise not satisfied

**Query** Answer whether composite z-score of `CC(C)C[C@@H]1NC(=O)[C@@H]2C[C@H](C(=O)NCCCCCCNC(=O)CS)[C@H](c3ccc(O)cc3)N2C1=O` is greater than or equal to 0.4.
**Result** satisfied

**Query** Answer whether composite z-score of `COc1cccc(C)c1NC(=O)O[C@H]1[C@H](OC(=O)Nc2ccccc2)[C@@H](OC(=O)Nc2ccccc2)[C@@H](OC)O[C@@H]1CO` is greater than or equal to 0.4.
**Result** not satisfied

**Query** Answer whether composite z-score of `CCCCC(=C=CC[C@H](O)c1ccccc1OCCO)CCO` is greater than or equal to 0.4.
**Result** not satisfied

**Query** Answer whether composite z-score of `C=CC[C@]1(C(=O)NCCN2CCOCC2)N=C(c2ccc(OCCCO)cc2)O[C@H]1c1ccccc1` is greater than or equal to 0.4.
**Result** satisfied

**Query** Answer whether composite z-score of `C=C(CC1([C@@H](NP(=O)(c2ccccc2)c2ccccc2)[C@H]2C[C@@H]2CCCC)CC1)c1cccc(OC)c1` is greater than or equal to 0.4.
**Result** satisfied

**Query** Answer whether composite z-score of `Cc1ccc(S[C@]2(C(=O)NCc3ccccc3)CC(=O)N(Cc3ccccc3Cl)[C@@H]2c2ccc(CO)cc2)cc1` is greater than or equal to 0.4.
**Result** not satisfied

**Query** Answer whether composite z-score of `COC(=O)C(CC#Cc1ccc2c(c1)[C@]1(C(=O)N2)[C@H](C(N)=O)[C@H]2C(=O)O[C@H](c3ccccc3)[C@H](c3ccccc3)N2[C@@H]1c1ccccc1OCCO)C(=O)OC` is greater than or equal to 0.4.
**Result** not satisfied

* * *

tested on: Lefty1; experiment: Lefty1 binders on small-molecule microarrays, primary screen, biochemical, small-molecule microarray, 635/667 nm fluorescence (AID 1139); details: small-molecule microarray binding, fluorescence 635/667; higher = more signal
Answer each item with its documented composite z-score.
// keep it numeric: no unit symbol after the value

**Query** Param item = `COCCCNC(=O)[C@@]1(Cc2ccccc2I)c2ccccc2C(=O)N(Cc2ccccc2C(F)(F)F)[C@H]1c1ccc(CO)cc1` ; retrieve measured composite z-score.
**Result** -1.15

**Query** Param item = `O=C1O[C@H](c2ccccc2)[C@H](c2ccccc2)N2[C@H]1[C@@H](C(=O)O)[C@]1(C(=O)Nc3ccc(C#CC4(O)CCCCCC4)cc31)[C@H]2c1ccccc1OCCO` ; retrieve measured composite z-score.
**Result** 0.664

**Query** Param item = `COCCOC(=O)N1C(=O)[C@@]2(c3cc(C#CCC(C(=O)OC)C(=O)OC)ccc31)[C@H](C(=O)N1CCc3cc(OC)c(OC)cc3C1)[C@H]1C(=O)O[C@H](c3ccccc3)[C@H](c3ccccc3)N1[C@@H]2c1ccccc1OCCO` ; retrieve measured composite z-score.
**Result** 1.61

**Query** Param item = `COc1ccc(CCNC(=O)[C@@H]2c3ccccc3C(=O)N(Cc3cc(F)cc(C(F)(F)F)c3)[C@H]2c2ccc(CO)cc2)cc1` ; retrieve measured composite z-score.
**Result** -0.192

**Query** Param item = `C=CCNC(=O)[C@H]1[C@@H]2C(=O)O[C@@H](c3ccccc3)[C@@H](c3ccccc3)N2[C@@H](c2ccc(OCCO)cc2)[C@]12C(=O)N(C(=O)OCCOC)c1ccc(C#CCNC(N)=O)cc12` ; retrieve measured composite z-score.
**Result** 0.707

**Query** Param item = CC(C)C[C@H]1NC(=O)CNC(=O)[C@@]23C(=O)N[C@@H](Cc4ccccc4)C2[C@H](C)[C@@]2(C)O[C@H]2C3/C=C/C/C=C\CNC1=O (stereo partly drawn) ; retrieve measured composite z-score.
**Result** 0.438

**Query** Param item = `COc1ccc(-c2cc3c(c(CCc4ccccc4)n2)[Si](C(C)C)(C(C)C)O[C@H]3c2ccccc2)cn1` ; retrieve measured composite z-score.
**Result** 0.169

**Query** Param item = `COC(=O)[C@@]1(Cc2ccccc2)[C@H]2c3cc(C(=O)N(C)C)n(CCF)c3C[C@H]2CN1C(=O)c1ccccc1` ; retrieve measured composite z-score.
**Result** -0.773

**Query** Param item = COc1ccc(NN2C(C(O)c3ccc(F)cc3)C=CC3C(=O)N(C4CCCCC4)C(=O)C32)cc1 (stereo not drawn) ; retrieve measured composite z-score.
**Result** 0.174

**Query** Param item = `C=CCNC(=O)[C@H]1[C@@H]2C(=O)O[C@@H](c3ccccc3)[C@@H](c3ccccc3)N2[C@@H](c2ccc(O)cc2)[C@]12C(=O)Nc1ccc(C#CCC(C(=O)OC)C(=O)OC)cc12` ; retrieve measured composite z-score.
**Result** 0.0372

**Query** Param item = `COC(=O)[C@@]1(Cc2ccc(F)cc2)[C@H]2c3cc(C(=O)N4CCCC4)n(Cc4ccc(C(F)(F)F)nc4)c3C[C@H]2CN1C(=O)c1ccccc1` ; retrieve measured composite z-score.
**Result** -0.13

**Query** Param item = CCCCN1CC=CC23O[C@@H]4/C=C\CCCOC(=O)C4[C@H]2C(=O)N(CCCCCCO)[C@@H]3C1=O (stereo partly drawn) ; retrieve measured composite z-score.
**Result** -0.331

**Query** Param item = CC(C)N1CC=CC23O[C@@H]4/C=C\CCCOC(=O)C4[C@H]2C(=O)N(C(C)CO)[C@@H]3C1=O (stereo partly drawn) ; retrieve measured composite z-score.
**Result** -0.246

**Query** Param item = `CCCCC(=C=CC[C@H](O)c1ccccc1OCCO)CCO` ; retrieve measured composite z-score.
**Result** 0.342

**Query** Param item = `C=CCNC(=O)[C@@H]1[C@H]2C(=O)O[C@H](c3ccccc3)[C@H](c3ccccc3)N2[C@H](c2ccc(OCCO)cc2)[C@@]12C(=O)Nc1ccc(C#CCNC(N)=O)cc12` ; retrieve measured composite z-score.
**Result** -0.0354

**Query** Param item = `CCOC(=O)C=C1C[C@@H](c2cccc([N+](=O)[O-])c2)O[C@@H](c2cccc([N+](=O)[O-])c2)O1` ; retrieve measured composite z-score.
**Result** 0.279

**Query** Param item = `CC(C)(C)OC(=O)N1[C@@H](C=C(Br)Br)COC1(C)C` ; retrieve measured composite z-score.
**Result** 0.519

**Query** Param item = C=CCC(OC(C)=O)[C@@H]1[C@@H](N(Cc2ccc(-c3ccccc3)cc2)C(=O)Cc2ccc(OC)cc2)c2cc(OCCCO)ccc2N1C(=O)c1ccc2ccccc2c1 (stereo partly drawn) ; retrieve measured composite z-score.
**Result** 0.146

**Query** Param item = O=C1OCC=C[C@H]2OC34C=CCN(Cn5nnc6ccccc65)C(=O)[C@H]3N(CCO)C(=O)[C@@H]4[C@@H]12 (stereo partly drawn) ; retrieve measured composite z-score.
**Result** -1.17

**Query** Param item = `CO[C@H]1O[C@H](CO)[C@@H](OC(=O)Nc2ccccc2)[C@@H]2OC(=O)[C@@H](Cc3ccccc3)C/C=C/C[C@H](Cc3ccccc3)C(=O)O[C@@H]12` ; retrieve measured composite z-score.
**Result** 0.449

**Query** Param item = `CN(C)C(=O)[C@]1(CCS(=O)(=O)c2ccccc2)N=C(c2ccc(OCCCO)cc2)O[C@@H]1c1ccccc1CN=[N+]=[N-]` ; retrieve measured composite z-score.
**Result** -0.421

**Query** Param item = `C=C[C@H](C)[C@@H](OC(=O)Nc1ccc(SC)cc1)c1ccc(OCCO)cc1` ; retrieve measured composite z-score.
**Result** 0.265

**Query** Param item = `C=C(CCCC)/C(=C/C[C@@H](OC(C)=O)c1ccc(OCCO)cc1)c1cc(C(=O)OC)ccc1OC` ; retrieve measured composite z-score.
**Result** 0.548

**Query** Param item = `CCOC(=O)C1=C[C@@H](C(C)(C)C)N(S(=O)(=O)c2ccc(C)cc2)[C@H]1c1ccc(OC)cc1` ; retrieve measured composite z-score.
**Result** 0.554

**Query** Param item = `C=C(COC)C(=O)CC[C@H](OC(C)=O)c1ccccc1OCCO` ; retrieve measured composite z-score.
**Result** 1.13

**Query** Param item = `COc1ccc([Si](C)(C)[C@@H]2[C@@H](CC(=O)N3Cc4ccccc4C[C@H]3CO)O[C@]3(C(=O)N(Cc4ccc(I)cc4)c4ccccc43)[C@H]2C)cc1` ; retrieve measured composite z-score.
**Result** 1.58

**Query** Param item = `C=C(CCCC)C(=O)CC[C@H](OC(=O)c1ccccc1-c1ccccc1C(=O)O)c1cccc(OCCO)c1` ; retrieve measured composite z-score.
**Result** 0.191

**Query** Param item = COC(=O)[C@H](Cc1ccccc1)N1CC(C)(OC)O[C@@H](Cc2ccccc2)[C@H]1/C=C/C1CC1 (stereo partly drawn) ; retrieve measured composite z-score.
**Result** -0.14
